test-details: Cytotoxicity against African green monkey Vero cells assessed as decrease in cell viability after 3 days by XTT assay
Assay type: toxicity, cell-based
experimental-parameters: chlorocebus sabaeus
# reported CC50 at 72 h; entries follow

molecular-string	CC50 at 72 h
C#CCOc1cn([C@@H]2O[C@H](CO)[C@@H](O)[C@H]2F)c(=O)n(CC#C)c1=O	> 300 µg/mL

Data request: Quick one: CC50 at 72 h for C#CCOc1cn([C@@H]2O[C@H](CO)[C@@H](O)[C@H]2F)c(=O)[nH]c1=O ?
Data returned: > 300 µg/mL
